Please respond with reported log10 of EC50 for every item in the list.
# test-target: LPL (native bovine milk protein) inactivated by ANGPTL4 (Bos taurus, UniProt P11151)
# Construct: from tissue; host or cells: bovine milk (LPL); E. coli (GST-ANGPTL4)
# Sequence (P11151 29-478): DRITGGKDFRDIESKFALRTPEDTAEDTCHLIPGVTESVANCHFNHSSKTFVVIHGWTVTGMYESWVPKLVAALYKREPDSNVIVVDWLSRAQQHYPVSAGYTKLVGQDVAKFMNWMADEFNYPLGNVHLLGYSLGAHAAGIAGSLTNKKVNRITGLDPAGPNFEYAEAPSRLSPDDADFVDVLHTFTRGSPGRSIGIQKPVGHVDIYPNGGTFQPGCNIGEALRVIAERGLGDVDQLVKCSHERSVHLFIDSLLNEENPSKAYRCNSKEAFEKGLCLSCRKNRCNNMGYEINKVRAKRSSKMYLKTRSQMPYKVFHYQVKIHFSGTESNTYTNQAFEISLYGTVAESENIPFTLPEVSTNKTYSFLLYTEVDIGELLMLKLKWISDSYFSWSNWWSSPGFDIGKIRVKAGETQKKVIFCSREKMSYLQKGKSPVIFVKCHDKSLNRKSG
# assay-name: LPL ANGPTL4 protection assay (LPL fluorescence assay, resorufin butyrate substrate)
# Assay type: biochemical
# measurement-parameters: LPL activation activity, LPL 2.5 nM, ANGPTL4 20 nM
# log10 transformed; quantity=EC50; unit=µM

Cc1ccc(NC(=O)c2cc(NCc3ccc(-c4nsc(=O)[nH]4)cc3)ccc2N2CCCCC2)cc1; 1.17
Cn1nc(C(=O)Nc2cc(C(=O)Nc3ccccc3CC(=O)O)ccc2N2CCCCC2)cc1-c1ccccc1; 0.62
CC(C)n1nc(C(=O)Nc2cc(C(=O)Nc3ccc(F)cc3CC(=O)O)ccc2N2CCCCC2)c2ccccc21; 0.51
Cc1ccc(NC(=O)c2cc(N3Cc4cc(-c5nnn[nH]5)ccc4C3=O)ccc2N2CCCCC2)cc1; 0.90
Cc1ccc(NC(=O)c2cc(NCc3ccc(-c4nnn[nH]4)cc3)ccc2N2CCCCC2)cc1; 1.13
CCn1nc(C(=O)Nc2cc(C(=O)Nc3ccccc3CC(=O)NS(C)(=O)=O)ccc2N2CCCCC2)c2ccccc21; 0.88
O=C(Nc1ccc(-c2nnn[nH]2)cc1)c1ccc(N2CCCCC2)c(NC(=O)c2nn(CC(F)(F)F)c3ccccc23)c1; 0.71
O=C(O)Cc1cc(F)ccc1NC(=O)c1ccc(N2CCCCC2)c(NC(=O)c2nn(CC(F)(F)F)c3ccccc23)c1; 0.00
Cn1nc(C(=O)Nc2cc(C(=O)Nc3ccccc3CC(=O)O)ccc2N2CCCCC2)c2ccccc21; 0.60
Cn1c(C(=O)Nc2cc(C(=O)Nc3ccccc3CC(=O)O)ccc2N2CCCCC2)cc2ccccc21; 0.77

q: Name the value of log10 of EC50 reported for O=C(O)Cc1cc(F)ccc1NC(=O)c1ccc(N2CCCCC2)c(NC(=O)c2nn(Cc3ccccc3)c3ccccc23)c1 when tested on LPL (native bovine milk protein) inactivated by ANGPTL4 (Bos taurus, UniProt P11151).
a: -0.07

====

# test-target: LPL (native bovine milk protein) inactivated by ANGPTL4 (Bos taurus)
# Construct: E. coli (GST-ANGPTL4)
# assay-name: LPL ANGPTL4 protection assay (LPL fluorescence assay, resorufin butyrate substrate)
# measurement-parameters: LPL activation activity, LPL 2.5 nM, ANGPTL4 20 nM
property-measured: pEC50
Numbers only, as −log10 of the molar value.

Below: 5 molecules and their reported pEC50.
Cc1ccc(NC(=O)c2cc(NCc3cc(-c4nnn[nH]4)ccc3F)ccc2N2CCCCC2)cc1 [Compound 169]; 5.20
Cn1nc(C(=O)Nc2cc(C(=O)Nc3cc(-c4nnn[nH]4)ccc3F)ccc2N2CCCCC2)c2ccccc21 [Compound 166]; 5.09
Cn1nc(C(=O)Nc2cc(C(=O)Nc3ccc(-c4nnn[nH]4)cc3)ccc2N2CCCCC2)c2ccc(F)cc21 [Compound 165]; 5.10
Cc1ccc(NC(=O)c2cc(-n3cc4ccc(-c5nnn[nH]5)cc4n3)ccc2N2CCCCC2)cc1 [Compound 167]; 5.03
O=C(O)Cc1ccccc1NC(=O)c1ccc(N2CCCCC2)c(NC(=O)c2cc3n(n2)CCCC3)c1 [Compound 161]; 5.49

Provide the reported pEC50 of each entry below, same order.
1. CCn1nc(C(=O)Nc2cc(C(=O)Nc3ccc(F)cc3CC(=O)O)ccc2N2CCCCC2)c2ccccc21 [Compound 160]
2. Cc1ccc(NC(=O)c2cc(NC(=O)c3ccccc3C(=O)O)ccc2NC2CCCC2)cc1Cl [Compound 176]

a:
1: 5.78; 2: 5.24

====

# test-target: LPL:sGPIHBP1 complex (Homo sapiens, UniProt P06858)
# Sequence (P06858 28-475): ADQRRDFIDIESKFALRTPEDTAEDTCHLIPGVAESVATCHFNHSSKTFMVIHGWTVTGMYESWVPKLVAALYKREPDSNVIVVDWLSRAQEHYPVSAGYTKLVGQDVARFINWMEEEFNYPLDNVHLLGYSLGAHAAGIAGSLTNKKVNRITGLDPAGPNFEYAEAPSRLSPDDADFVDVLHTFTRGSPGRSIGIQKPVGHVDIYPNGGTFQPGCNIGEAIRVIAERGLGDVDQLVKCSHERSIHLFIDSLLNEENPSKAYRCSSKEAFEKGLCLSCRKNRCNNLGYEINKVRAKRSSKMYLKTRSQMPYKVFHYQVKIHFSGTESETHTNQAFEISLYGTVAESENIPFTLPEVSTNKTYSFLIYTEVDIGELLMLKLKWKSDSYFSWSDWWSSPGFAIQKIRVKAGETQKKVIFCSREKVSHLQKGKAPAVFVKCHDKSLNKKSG
# Sequence (Q8IV16 21-151 partner limits assumed): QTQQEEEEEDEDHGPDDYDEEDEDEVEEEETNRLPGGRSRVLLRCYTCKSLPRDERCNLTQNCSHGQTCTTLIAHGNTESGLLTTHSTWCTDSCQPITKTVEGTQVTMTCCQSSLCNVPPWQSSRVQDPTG
# assay-name: RB assay (LPL:sGPIHBP1 pre-incubated with ANGPTL4, RB substrate)
# Format: biochemical
# measurement-parameters: read-out: RB qAC50
pEC50: −log10 of the molar value.
Exercise: state measured pEC50 for each of the compounds provided.

NC(=O)C1CCCCN1c1ccc(C(=O)Nc2ccc(F)cc2CC(=O)O)cc1NC(=O)c1nn(CC(F)(F)F)c2ccccc12 (stereo not shown) [Example 71]; < 5.15
Cc1nc(C(=O)Nc2cc(C(=O)Nc3ccc(F)cc3CC(=O)O)ccc2N2CCCCC2)n2ccccc12 [Compound 110]; < 5.15
Cc1cc(Cn2nc(C(=O)Nc3cc(C(=O)Nc4ccc(F)cc4CC(=O)O)ccc3N3CCCCC3)c3ccccc32)no1 [Compound 124]; 5.33
Cc1cccc2c1c(C(=O)Nc1cc(C(=O)Nc3ccc(F)cc3CC(=O)O)ccc1N1CCCCC1)nn2CC(F)(F)F [Compound 141]; < 4.60
O=C(O)Cc1cc(F)ccc1NC(=O)c1ccc(N2CCC(O)CC2)c(NC(=O)c2nn(CC(F)(F)F)c3ccccc23)c1 [Example 75]; < 4.60

Consider the following items and state reported pEC50 for each.
1. O=C(O)Cc1cc(F)ccc1NC(=O)c1ccc(N2CCCCC2)c(NC(=O)c2nn(C[C@@H]3CCCO3)c3ccccc23)c1 [Compound 136]
2. O=C(O)Cc1cc(F)ccc1NC(=O)c1ccc(N2CCCCC2)c(NC(=O)c2nn(CC3CCC3)c3ccccc23)c1 [Compound 98]

a:
["< 4.60", 5.21]

====

# test-target: LPL:sGPIHBP1 complex (Homo sapiens, UniProt P06858)
# assay-name: RB assay (LPL:sGPIHBP1 pre-incubated with ANGPTL4, RB substrate)
# measurement-parameters: read-out: RB qAC50
property-measured: EC50 (µM)
One number for each entry, in µM.

Items follow; give EC50 for each.
1. COCCn1nc(C(=O)Nc2cc(C(=O)Nc3ccc(F)cc3CC(=O)O)ccc2N2CCCCC2)c2ccccc21 [Compound 105]
2. CC(C)Cn1nc(C(=O)Nc2cc(C(=O)Nc3ccc(F)cc3CC(=O)O)ccc2N2CCCCC2)c2ccccc21 [Compound 95]
3. O=C(O)Cc1cc(F)ccc1NC(=O)c1ccc(N2CCCCC2)c(NC(=O)c2nn(C3CC3)c3ccccc23)c1 [Compound 97]
4. CC1(C)CCN(c2ccc(C(=O)Nc3ccc(F)cc3CC(=O)O)cc2NC(=O)c2nn(CC(F)(F)F)c3ccccc23)CC1 [Example 61]
5. O=C(O)Cc1cc(F)ccc1NC(=O)c1ccc(N2CCCCC2)c(NC(=O)c2cc(-c3ccccc3)n(CC(F)(F)F)n2)c1 [Compound 116]
6. O=C(O)Cc1cc(F)ccc1NC(=O)c1ccc(N2CCCCC2)c(NC(=O)c2nn(CC(F)(F)F)c3c2CCC3)c1 [Compound 145]
7. O=C(O)Cc1cc(F)ccc1NC(=O)c1ccc(N2CCCCC2)c(NC(=O)c2nn(CC(F)(F)F)c3ccc(F)cc23)c1 [Compound 138]
8. O=C(O)Cc1cc(F)ccc1NC(=O)c1ccc(N2CC3(CCC3)C2)c(NC(=O)c2nn(CC(F)(F)F)c3ccccc23)c1 [Example 49]

a:
1: 14; 2: 5; 3: 13; 4: 3.6; 5: 23; 6: 15; 7: 4.8; 8: 20
